# Assayed system: (Ec)Ffh-NG (Escherichia coli, UniProt P0AGD7)
# Construct: purified NG domains of (Ec)Ffh, (Ec)FtsY and (Bs)Ffh; His6 (C); made in house; host or cells: E. coli BL21 (DE3)
# Sequence (P0AGD7 1-296): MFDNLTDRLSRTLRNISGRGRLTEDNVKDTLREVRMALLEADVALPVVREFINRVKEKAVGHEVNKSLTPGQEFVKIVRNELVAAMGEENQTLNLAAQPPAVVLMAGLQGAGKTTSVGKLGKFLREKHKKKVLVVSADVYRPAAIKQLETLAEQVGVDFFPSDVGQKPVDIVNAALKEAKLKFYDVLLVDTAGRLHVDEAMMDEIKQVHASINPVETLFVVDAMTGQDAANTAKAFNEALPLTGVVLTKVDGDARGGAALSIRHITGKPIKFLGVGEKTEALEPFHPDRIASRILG
# Assay method text: Microscale thermophoresis (MST) ligand binding
# Design: species or system E. coli
# Study conditions: NG domain labeled with NT 647, 21 °C
Below: a set of entries, each annotated with reported Kd.
Supply the numeric figure in µM, leaving out any unit text.

Recorded Kd, per entry:
| Molecule | Value reported |
| --- | --- |
| Nc1nc2c(ncn2[C@@H]2O[C@H](COP(=O)(O)OP(=O)(O)OP(=O)(O)O)[C@@H](O)[C@H]2O)c(=O)[nH]1 [GTP] | 62.3 |
| Nc1nc2c(ncn2[C@@H]2O[C@H](COP(=O)(O)OP(=O)(O)O)[C@@H](OP(=O)(O)OP(=O)(O)O)[C@H]2O)c(=O)[nH]1 [ppGpp] | 13.5 |

Now for another entry.
Sample Nc1nc2c(ncn2[C@@H]2O[C@H](COP(=O)(O)OP(=O)(O)OP(=O)(O)O)[C@@H](OP(=O)(O)OP(=O)(O)O)[C@H]2O)c(=O)[nH]1 [pppGpp] — what was its Kd?
68.3

====

# Assayed system: (Ec)Ffh-NG (Escherichia coli, UniProt P0AGD7)
# Construct: purified NG domains of (Ec)Ffh, (Ec)FtsY and (Bs)Ffh; His6 (C); made in house; host or cells: E. coli BL21 (DE3)
# Assay method text: Isothermal titration calorimetry (ITC) of nucleotide binding
# Set-up: species or system E. coli
Observed property: pKd
Worth noting: pKd values are minus log10 of concentrations stated in mol/L.

Recorded pKd, per entry:
| Structure smiles string | Observed property | Value reported |
| --- | --- | --- |
| Nc1nc2c(ncn2[C@@H]2O[C@H](COP(=O)(O)OP(=O)(O)OP(=O)(O)O)[C@@H](O)[C@H]2O)c(=O)[nH]1 | pKd | 6.15 |
| Nc1nc2c(ncn2[C@@H]2O[C@H](COP(=O)(O)OP(=O)(O)OP(=O)(O)O)[C@@H](OP(=O)(O)OP(=O)(O)O)[C@H]2O)c(=O)[nH]1 | pKd | 4.86 |
| Nc1nc2c(ncn2[C@@H]2O[C@H](COP(=O)(O)OP(=O)(O)O)[C@@H](OP(=O)(O)OP(=O)(O)O)[C@H]2O)c(=O)[nH]1 | pKd | 5.10 |

Now for another entry.
Sample Nc1nc2c(ncn2[C@@H]2O[C@H](COP(=O)(O)OP(=O)(O)O)[C@@H](O)[C@H]2O)c(=O)[nH]1 — what was its pKd?
5.66

====

Below: a set of entries, each annotated with reported pKd.
# Assayed system: (Ec)FtsY-NG (Escherichia coli, UniProt P10121)
# Construct: purified NG domains of (Ec)Ffh, (Ec)FtsY and (Bs)Ffh; His6 (C); made in house; host or cells: E. coli BL21 (DE3)
# Sequence (P10121 197-497): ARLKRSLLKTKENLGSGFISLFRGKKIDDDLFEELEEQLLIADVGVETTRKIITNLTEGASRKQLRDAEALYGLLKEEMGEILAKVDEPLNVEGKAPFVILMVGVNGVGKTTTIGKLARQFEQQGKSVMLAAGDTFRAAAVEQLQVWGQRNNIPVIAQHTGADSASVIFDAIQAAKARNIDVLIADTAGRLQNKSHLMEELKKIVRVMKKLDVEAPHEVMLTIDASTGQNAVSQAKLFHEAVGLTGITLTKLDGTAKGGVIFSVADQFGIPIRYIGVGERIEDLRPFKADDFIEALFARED
# Assay method text: Isothermal titration calorimetry (ITC) of nucleotide binding
# Design: species or system E. coli
# Study conditions: NG domain, 25 °C, one set of sites model
Worth noting: pKd values are minus log10 of concentrations stated in mol/L.

| Compound | Value reported |
| --- | --- |
| Nc1nc2c(ncn2[C@@H]2O[C@H](COP(=O)(O)OP(=O)(O)O)[C@@H](O)[C@H]2O)c(=O)[nH]1 [GDP] | 5.01 |

Now for another entry.
Sample Nc1nc2c(ncn2[C@@H]2O[C@H](COP(=O)(O)OP(=O)(O)O)[C@@H](OP(=O)(O)OP(=O)(O)O)[C@H]2O)c(=O)[nH]1 [ppGpp] — what was its pKd?
4.66
